These measurements were taken from PubChem BioAssay AID330.

# System: P388 leukemia ip, CD2F1 mice, survival T/C
# ASSAY PROCEDURE: NCI In Vivo Anticancer Drug Screen. Data for tumor model P388 Leukemia (intraperitoneal) in CD2F1 (CDF1) mice
# MEASUREMENT CONTEXT: endpoint: median survival time; dose: 50.0 mg/kg/injection; schedule: Q01DX009 (ip); vehicle: other
Toxic doses and inconclusive results are not listed. Rule for the calls: active = survival T/C of 150% or more; inactive = T/C below 125% in these data.
The reply should be one of these categories: active, inactive

INSERT INTO assay_data (compound, class_label) VALUES
  ('O=C1CCCCC2CC2C1=O (stereo not drawn) (tested in a mixture with another compound)', 'inactive'),
  ('CC1=C(C#N)C(C)(C)C(C#N)=C(C)N1C', 'inactive');

Which outcome was assigned to C1CCC2(CC1)NN=C1CCCCC12 (stereo not drawn) in this test?
inactive

Which outcome was assigned to COc1ccc(C(O)OC2CC3C=CC2C3)cc1 (stereo not drawn) in this test?
inactive

Which outcome was assigned to NNS(=O)(=O)c1ccc(Cl)cc1 in this test?
inactive

Which outcome was assigned to c1ccc(-c2cn3ccsc3n2)cc1 in this test?
inactive

Which outcome was assigned to Cc1ccc(S(=O)(=O)N/N=C\c2cccnc2)cc1 in this test?
inactive

Which outcome was assigned to CN(C)C1C(O)C2Oc3c(cc(O)c4c3C(=O)c3cc5c(c(O)c3C4=O)C(NCCO)CC(C)(O)C5)C(C)(O2)C1O (stereo not drawn) in this test?
active
